Reference source: PubChem BioAssay AID2060907

Each record here notes measured viability, T/C.
Tested on: 388556-164-R-J1-PDC complex spheroid viability;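 further: spheroids exposed to compound for 7 days before readout; 100% = DMSO vehicle control luminescence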
Assay: Anticancer human tumor 388556-164-R-J1-PDC patient-derived colon adenocarcinoma cell line growth inhibition [RAS]
Settings: second compound 3.16 µM; first compound 0.01 µM; active compounds read low

INSERT INTO measurements (compound, target, readout_name, test_result) VALUES
  ('CC(C)n1nc(-c2ccc3oc(N)nc3c2)c2c(N)ncnc21 + C#Cc1c(F)ccc2cc(O)cc(-c3ncc4c(N5CC6CCC(C5)N6)nc(OCC56CCCN5CC(F)C6)nc4c3F)c12', '388556-164-R-J1-PDC complex spheroid viability', 'viability, T/C', '73.5%'),
  ('O=C(c1ccc(F)c(F)c1Nc1ccc(I)cc1F)N1CC(O)([C@@H]2CCCCN2)C1 + C#Cc1c(F)ccc2cc(O)cc(-c3ncc4c(N5CC6CCC(C5)N6)nc(OCC56CCCN5CC(F)C6)nc4c3F)c12', '388556-164-R-J1-PDC complex spheroid viability', 'viability, T/C', '62.9%');

Continue with the compound presented below.
input: State the recorded viability, T/C for this entry: Nc1ccn(C2OC(CO)C(O)C2(F)F)c(=O)n1 (stereo not drawn) + C#Cc1c(F)ccc2cc(O)cc(-c3ncc4c(N5CC6CCC(C5)N6)nc(OCC56CCCN5CC(F)C6)nc4c3F)c12
output: 70.1%
